experiment: soluble on expression in E. coli; label from the status in PepcDB or PDB records
MEASURE_NAME: soluble on expression in E. coli

| RESIDUE_CODES | soluble on expression in E. coli |
| --- | --- |
| MAGNAPLQQVQKKWAECQYSTPDGDEKEQCFHRAIAKTSIYLDREPGNPELTVWLAINKASLAGAQGGFGALSLAKEAKSLLEGVIATSPQTLDGSAYTSLGSLYYKVPGWPIGFGDDDKAEEMLKKALEINPKGIDPNYFYGDFLAEEGRDKEAKVYLTRAMQASPRPDRPLADKGRKLEIEATLGRLKLEHHHHHH | soluble |
| TKDFEWSSTINAAYQKDEIVELANGKQDDISNAWFIGESINVFYGTASDGLWQESDAAEMAKFNANGHKFEAGMVKPVDQDGNYIIDSNDRIILGNKNPKWVLGWSNTFNYKGLELGIELNGRFGYMVDTGGEGQYGMYNQREISYWTPDNTGADYQKPIYSTAGGDAYSSLLGFKDASFIKIRNISLGYNFNSKALKNIGISSLKLYAQAKNIGNLYSSVDFMDLDLGTTYYNRGFTFGLQVGF | not soluble |
| GSAAPPAKEIPEVLVDPRSRRRYVRGRFLGKGGFAKCFEISDADTKEVFAGKIVPKSLLLKPHQREKMSMEISIHRSLAHQHVVGFHGFFEDNDFVFVVLELCRRRSLLELHKRRKALTEPEARYYLRQIVLGCQYLHRNRVIHRDLKLGNLFLNEDLEVKIGDFGLATKVEYDGERKKTLCGTPNYIAPEVLSKKGHSFEVDVWSIGCIMYTLLVGKPPFETSCLKETYLRIKKNEYSIPKHINPVAASLIQKMLQTDPTARPTINELLNDEFFTSGYIPARLPITCLTIPPRFSIAPSSLDPSNRKPLTVLNK | soluble |
| MGSDKIHHHHHHMISNQILQNTIDGLKGITRTDLCVIDVEGKILAATFPNAEAFIEPAQAFVASPADSQVINGCQFFKVFDDHQLEYVLLAYGDSEDVYMIGKIASFQIQNLLVAYKERFDKDNFIKNLLLDNLLLVDIYNRAKKLHIDIEVRRVVFIVETNREKDGNELEKIRSLFGGKSKDFVTAVDEKNIIVVKELAENETYDDLRKTAEVILNLFRSEADGVHIAYGTVINELKEVSRSYKEARMALDVGKIFFEERNIIAYSQLGIGRLIYQLPIPLCKMFIKEIFDGKSPDDFDEEILSTINKFFENSLNVSETSRQLYIHRNTLVYRLDKLQKSTGLDLRVFEDAITFKIALMVVKYMKYMESMDY | not soluble |
| MRGSHHHHHHTDPHASSVPLEWPLSSQSGSYELRIEVQPKPHHRAHYETEGSRGAVKAPTGGHPVVQLHGYMENKPLGLQIFIGTADERILKPHAFYQVHRITGKTVTTTSYEKIVGNTKVLEIPLEPKNNMRATIDCAGILKLRNADIELRKGETDIGRKNTRVRLVFRVHIPESSGRIVSLQTASNPIECSQRSAHELPMVERQDTDSCLVYGGQQMILTGQNFTSESKVVFTEKTTDGQQIWEMEATVDKDKSQPNMLFVEIPEYRNKHIRTPVKVNFYVINGKRKRSQPQHFTYHPV | soluble |

Can you look up the measured soluble on expression in E. coli of `MAEPKSFNIPYRSKLTERIEPGQTLIIRGKTIDESKRFNINLHKDSPDFSGNDVPLHLSIRFDEGKIVYNAYTKGTWGKEERAKNPIKKGDDFDIRIRAHDSKFQVSINHKEVKNFEHRIPLNSVSHLSIDGDVVLNHVQWGGKYYPVPYESGIAADGLVPGKTLVVYGTPEKKAKKFNINLLKKNGDIALHFNPRFDEKANGFMCAKPTPGSVVRNSLVNGEWGNEEREGKNPFERLTAFDLEIRNEEFAFQIFVNGERFASYAHRVDPHDIAGLQIQGDIELTGIQVVNNQPAQE` for me?
not soluble

====

assay: soluble on expression in E. coli; label from the status in PepcDB or PDB records

| RESIDUE_CODES | soluble on expression in E. coli |
| --- | --- |
| MIITVASFKGGVGKTTTAVHLSAYLALQGETLLIDGDPNRSATGWGKRGSLPFKVVDERQAAKYAPKYQNIVIDTQARPEDEDLEALADGCDLLVIPSTPDALALDALILTIETLQKLGNNRFRILLTIIPPYPSKDGDEARQLLTTAGLPLFKRGIKRYSAFQKASLNGVVVSEVSDSKAGIAWSDYKATGKEIVEEILILEHHHHHH | soluble |
| MSLKKLIAVAVLSACGSLAHANTNIPNYNTDAHLYEFTQTYDLVVPKGSQGQTNLWVPLPFNGEYQQVKSIHFEGNYMNAYVTENNKYGAKTLFATWNKDAQKRDLKVMMVIETKDREPMVKGALENYTPPKDIQYSVDVQEYLKATPHIKTDGIVKEFPDKILGKETNPLKKAELIHHWFVKNMERDNSVLGCGDGDVEKILTTGVLKGKCTDINSVFVALARAAGIPAREIFGIRLGAAEKMGKYSKGAFGSANEQGIANVSGGQHCRAEFYLAGFGWVPVDSADVAKMRLAEKKSVEDKDTQAVAKYLFGNWEANWVGFNHARDFDLYPQPELAPINNFGYPYAEVGGDPLNSFDPKEFKYDYVSKKLEGGSHHHHHH | soluble |

====

assay: soluble on expression in E. coli; label from the status in PepcDB or PDB records
MEASURE_NAME: soluble on expression in E. coli

Recorded soluble on expression in E. coli, per entry:
| RESIDUE_CODES | MEASURE_NAME | MEAS_VALUE |
| --- | --- | --- |
| MLKSIILLICAHCAFSDRLDAGSQADCVAAANKIYNNEWGFDHKLVYDKELEPFAAETPCGIAYLQNGLAEVGSGGAHTSVNLREEHTRIACVPKKCGGVEVACAVGGPSMALNLKRKIRKLRQIRCLRTFGATVTLKN | soluble on expression in E. coli | not soluble |
| MSLTASAPRRPAAFLDRDGVINYNDHYVGTRERLRWMPGIAAAIRQLNAAGYYVFIITNQSGVARGMFSEDDVRALHRWMLDELNTQGARIDDVRFCPHHVEGTLDAYRVACEHRKPGPGMILDLAKTWPVDMTRSFVIGDSASDVEAAKAAGIPGFRFEGEDIDVFVKQVLIEMQRAAVSNEGHHHHHH | soluble on expression in E. coli | soluble |
| QLNQILRAANLHSFAVANLRQVEHATRPTKTMSAGLTIINVPAFYSSQHQLQKQYWTQLQHLIKQTKPTTDLILNFAANTGGSSAPMIAGLAAIIPDGTIYTGITNHHRNRPRMMYHGRITGGLGQDDVNFSQPTAAHFRHIYAIIGNQTASAAEVTIMALKRNPHVTLVGRSSAGYTSLNGGVFLNTAVAVMTIGTLKATVKIHGQQYFNNQPLKPDIPTLYQPLAPLQLGQSPHLDADFLSELRTIMKHYH | soluble on expression in E. coli | not soluble |
| TAPIAITCFTRGLDIRKEKADVLCPGGCPLEEFSVYGNIVYASVSSICGAAVHRGVISNSGGPVRVYSLPGRENYSSVDANGIQSQMLSRWSASFTVTLE | soluble on expression in E. coli | soluble |
| VKVSKECEKIDIILTDGVIILGKIKGQIDSKSLHEHEKKPFSQSGTMNPETSRLLVNLSRPKKEVLDPFVGTGSILIEARWLNYECIGSDLDKAMLQKTKINLNYFNYYCSLLFSSATNLPFRQITSIATDPPYGRSTKNKGAELTQLYEEFFSSASETLTKGGFLVFATDSRFNFIDKLKENSFIIKGLHYLYSHKSLTRAIYVVQKK | soluble on expression in E. coli | not soluble |
| MTEVIAYLIEHFQDFDTCPPPEDLGMLLEEAGFDTMEIGNTLMMMEVLLNSSEFSAEPADSGALRVYSKEETDNLPQEVMGLMQYLIEEKAVSCEQREIIIHALMHIPGDEITVDTAKVLTLLLLWANKSELPVLVGDELMSALLLDNKPTMN | soluble on expression in E. coli | not soluble |

Can you look up the measured soluble on expression in E. coli of `MDLLFGRRKTPEELLRQNQRALNRAMRELDRERQKLETQEKKIIADIKKMAKQGQMDAVRIMAKDLVRTRRYVRKFVLMRANIQAVSLKIQTLKSNNSMAQAMKGVTKAMGTMNRQLKLPQIQKIMMEFERQAEIMDMKEEMMNDAIDDAMGDEEDEEESDAVVSQVLDELGLSLTDELSNLPSTGGSLSVAAGGKKAEAAASALADADADLEERLKNLRRD` for me?
soluble

Can you look up the measured soluble on expression in E. coli of `FSNNNFVYTDGTHFALNGKSLYINGFNAYWLMYIAYDPSTRIKVTNTFQQASKYKMNVARTWAFSHGGSRPLQSAPGVYNEQMFQGLDFVISEAKKYGIHLIMSLVNNWDAFGGKKQYVEWAVQRGQKLTSDDDFFTNPMVKGFYKNNVKVVLTRVNTITKVAYKDDPTILSWELINEPRCPSDLSGKTFQNWVLEMAGYLKSIDSNHLLEIGLEGFYGNDMRQYNPNSYIFGTNFISNNQVQGIDFTTIHMYPNQWLPGLTQEAQDKWASQWIQVHIDDSKMLKKPLLIAEFGKSTKTPGYTVAKRDNYFEKIYGTIFNCAKSGGPCGGGLFWQVLGQGMSSFDDGYQVVLQESPSTSRVILLQSLRLSKLS` for me?
soluble

These measurements were taken from the DeepSol protein solubility set.
